Origin of measurements: patent US11001595B2

# tgt: recombinant pjDHFR (Pneumocystis jirovecii (Human pneumocystis pneumonia agent))
# assay_text: Inhibition of recombinant pjDHFR
# condition_set: 37° C., 18 μM dihydrofolic acid
recorded_metric: IC50 (nM)

{"compound": "COc1cc(NCc2ccc3nc(N)nc(N)c3c2C)cc(OC)c1OC [TMQ, Trimetrexate]", "observed_result": 2.1}

====

# Test system: NCl/ADR-RES cells (Pgp overexpressing)
# assay_text: Antiproliferative effect, Pgp overexpressing NCI/ADR-RES, SRB assay (Section E)
# condition_set: read-out: IC50 ± SD Pgp Overexpressing NCl/ADR-RES; SRB assay
pIC50: −log10 of the molar value.

{"smiles_repr": "COc1ccc(/C=C\\c2cc(OC)c(OC)c(OC)c2)cc1O", "pIC50": 8.05}
